Tested on: Mycobacterium tuberculosis H37Ra
Assay procedure: Antimycobacterial screening (microdilution broth, resazurin) against M. tuberculosis H37Ra
Type: cell-based
Experimental parameters: Mycobacterium tuberculosis, H37RA, read-out: MIC Mtb H37Ra (µM)
Measure name: MIC

Compound: COc1cccc(C(=O)O[C@H]2C=C[C@@]34CCN(C)Cc5ccc(OC)c(c53)O[C@H]4C2)c1 [1k, 6-O-(3-methoxybenzoyl)galanthamine]
Assayed system: Mycobacterium tuberculosis H37Ra
Measure name: MIC
Reported: 68.3 µM

Compound: COC1CC2C(=CC1OC(=O)c1ccc3ccccc3c1)C1CN2Cc2cc3c(cc21)OCO3 (stereo not drawn) [3g, 2-O-(2-naphthoyl)-3-O-methylpancracine]
Assayed system: Mycobacterium tuberculosis H37Ra
Measure name: MIC
Reported: 31.8 µM

Compound: COc1ccc2c3c1O[C@H]1C[C@@H](OC(=O)c4c(C)cc(C)cc4C)C=C[C@@]31CCN(C)C2 [1g, 6-O-(2,4,6-trimethylbenzoyl)galanthamine]
Assayed system: Mycobacterium tuberculosis H37Ra
Measure name: MIC
Reported: 18 µM

Compound: COC1CC2C(=CC1OC(=O)c1ccc(C(C)(C)C)cc1)C1CN2Cc2cc3c(cc21)OCO3 (stereo not drawn) [3c]
Assayed system: Mycobacterium tuberculosis H37Ra
Measure name: MIC
Reported: 7.9 µM

Compound: COc1cc(OC)cc(C(=O)O[C@H]2C=C[C@@]34CCN(C)Cc5ccc(OC)c(c53)O[C@H]4C2)c1 [1n, 6-O-(3,5-dimethoxybenzoyl)galanthamine]
Assayed system: Mycobacterium tuberculosis H37Ra
Measure name: MIC
Reported: 34.6 µM

Compound: O=C(O[C@@H]1C=C[C@]23CCN(Cc4cc5c(cc42)OCO5)[C@H]3C1)c1ccc2ccccc2c1 [4b, 3-O-(2-naphthoyl)vittatine]
Assayed system: Mycobacterium tuberculosis H37Ra
Measure name: MIC
Reported: 8.5 µM

----------
Test system: Mycobacterium tuberculosis H37Ra
Assay procedure: Antimycobacterial screening (microdilution broth, resazurin) against M. tuberculosis H37Ra
Format: cell-based
Experimental parameters: Mycobacterium tuberculosis; M. tuberculosis H37Ra; resazurin added after 120 h; read-out: MIC Mtb H37Ra

Smiles representation: CCOc1cc(OCC)cc(C(=O)O[C@H]2C=C[C@@]34CCN(C)Cc5ccc(OC)c(c53)O[C@H]4C2)c1
MIC: 3.91 µg/mL

Smiles representation: COc1ccc2c3c1O[C@H]1C[C@@H](OC(=O)c4ccc5ccccc5c4)C=C[C@@]31CCN(C)C2
MIC: 1.98 µg/mL

Smiles representation: COc1ccc2c3c1O[C@H]1C[C@@H](OC(=O)c4cccc(C)c4)C=C[C@@]31CCN(C)C2
MIC: 15.6 µg/mL

----------
Test system: Mycobacterium tuberculosis H37Ra
Assay procedure: Antimycobacterial screening (microdilution broth, resazurin) against M. tuberculosis H37Ra
Format: cell-based
Experimental parameters: Mycobacterium tuberculosis; M. tuberculosis H37Ra; resazurin added after 120 h; read-out: MIC Mtb H37Ra

Molecule: COc1ccc2c3c1O[C@H]1C[C@@H](OC(=O)c4ccccc4)C=C[C@@]31CCN(C)C2
Assayed system: Mycobacterium tuberculosis H37Ra
Unit symbol: µg/mL
Result operator: =
MIC: 31.2
--
Molecule: O[C@@H]1C=C[C@]23CCN(Cc4cc5c(cc42)OCO5)[C@H]3C1
Assayed system: Mycobacterium tuberculosis H37Ra
Unit symbol: µg/mL
Result operator: ≥
MIC: 500
--
Molecule: COC1CC2C(=CC1OC(=O)c1ccc3ccccc3c1)C1CN2Cc2cc3c(cc21)OCO3 (stereo not shown)
Assayed system: Mycobacterium tuberculosis H37Ra
Unit symbol: µg/mL
Result operator: =
MIC: 15.6
--
Molecule: COc1cc2c(cc1OC)[C@@H]1[C@H](O)[C@@H](OC)C=C3CCN(C2)[C@H]31
Assayed system: Mycobacterium tuberculosis H37Ra
Unit symbol: µg/mL
Result operator: =
MIC: 250
--
Molecule: COc1cc(C(=O)O[C@H]2C=C[C@@]34CCN(C)Cc5ccc(OC)c(c53)O[C@H]4C2)cc(OC)c1OC
Assayed system: Mycobacterium tuberculosis H37Ra
Unit symbol: µg/mL
Result operator: =
MIC: 62.5
--
Molecule: O=C(O[C@@H]1C=C[C@]23CCN(Cc4cc5c(cc42)OCO5)[C@H]3C1)c1cccc2ccccc12
Assayed system: Mycobacterium tuberculosis H37Ra
Unit symbol: µg/mL
Result operator: =
MIC: 3.91
--
Molecule: O=C(O[C@@H]1C=C[C@]23CCN(Cc4cc5c(cc42)OCO5)[C@H]3C1)c1ccc2ccccc2c1
Assayed system: Mycobacterium tuberculosis H37Ra
Unit symbol: µg/mL
Result operator: =
MIC: 3.91
